Test system: cells
Assay: Cytotoxicity test (MTT)
Assay type: cell-based
Settings: ST2 cells, 10^−6M, 72 hrs, compared with the control group
Mark Not satisfied for Survival rates of the cells values under 40%, and Satisfied for everything at or above.

Task: Given `CCc1sc(N(CCO)CCO)nc1-c1ccc(OCCCCCOc2ccc(C(=N)NO)cc2)cc1` , state whether its Survival rates of the cells is at least 40%.
Output: Satisfied

Task: Next molecule: `N=C(NO)c1ccc(OCCCCCOc2ccc(-c3nc(-c4ccccc4)sc3Cc3ccccc3)cc2)cc1`
Output: Satisfied

Task: Next molecule: `CCc1sc(N(C)Cc2cccnc2)nc1-c1ccc(OCCCCCOc2ccc(C(=N)NO)cc2)cc1`
Output: Not satisfied

Task: Next molecule: `CCNc1nc(-c2ccc(OCCCCCOc3ccc(C(=N)NO)cc3)cc2)c(C)s1`
Output: Satisfied

Task: Next molecule: `CCCCCc1nc(-c2ccc(OCCCCCOc3ccc(C(=N)NO)cc3)cc2)c(CC2CCCC2)s1`
Output: Satisfied

Task: Next molecule: `CC(C)c1nc(-c2ccc(OCCCCCOc3ccc(C(=N)NO)cc3)cc2)c(CC2CCCC2)s1`
Output: Not satisfied

Task: Next molecule: CCCNc1nc(-c2ccc(OC(C)CCCOc3ccc(C(=N)NO)cc3)cc2)c(C)s1 (stereo not shown)
Output: Satisfied

Task: Next molecule: `CCc1nc(-c2ccc(OCCCCCOc3ccc(C(=N)NO)cc3)cc2)c(CC2CCCC2)s1`
Output: Satisfied

Task: Next molecule: `Cc1sc(C(C)(C)C)nc1-c1ccc(OCCCCCOc2ccc(C(=N)NO)cc2)cc1`
Output: Not satisfied

Task: Next molecule: `N=C(NO)c1ccc(OCCCCCOc2ccc(-c3csc(N)n3)cc2)cc1`
Output: Not satisfied

Task: Next molecule: `CN(Cc1cccnc1)c1nc(-c2ccc(OCCCCCOc3ccc(C(=N)NO)cc3)cc2)c(CC2CCCC2)s1`
Output: Satisfied

Task: Next molecule: `CCCNc1nc(-c2ccc(OCCCCCOc3ccc(C(=N)NO)cc3)cc2)c(CC)s1`
Output: Not satisfied

Task: Next molecule: `CNc1nc(-c2ccc(OCCCCCOc3ccc(C(=N)NO)cc3)cc2)c(Cc2ccccc2)s1`
Output: Satisfied

Task: Next molecule: `Cc1sc(NC(=O)c2ccncc2)nc1-c1ccc(OCCCCCOc2ccc(C(=N)NO)cc2)cc1`
Output: Not satisfied
